Exercise: for every item that follows, state its recorded TGI.
# Tested on: NCI-H23 lung
# assay-explanation: NCI tumour cell line growth inhibition, 48 h

Examples from the recorded data:
COCOCCC#CCO :: > 100 µM
O=c1[nH]c(=O)n(C2CC(O)C(CO)O2)cc1OS(=O)(=O)C(F)(F)F (stereo unspecified) :: > 100 µM
CN(Cc1cnc2nc(N)nc(N)c2n1)c1ccc(C(=O)N[C@@H](CCS(=O)(=O)O)C(=O)O)cc1 :: > 100 µM
CCOc1ccc(NC(=O)CC2SC(=Nc3ccc(C)cc3C)NC2=O)cc1 (stereo unspecified) :: > 100 µM
COc1c2occc2c(N)c2ccc(=O)oc12 :: > 100 µM

Could you now consider this next compound?
What TGI value was documented for this compound, O=C(c1ccc([N+](=O)[O-])cc1[N+](=O)[O-])N(/N=C/C=C/c1ccccc1)c1nnc(-c2ccccc2)c(-c2ccccc2)n1 ?
93.2 µM
